B1: HDV Ribozyme (parent)
chain: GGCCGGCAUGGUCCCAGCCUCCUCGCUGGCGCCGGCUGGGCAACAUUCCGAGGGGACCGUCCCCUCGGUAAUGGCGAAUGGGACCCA

Variants of: B1
protocol.summary: self-cleavage, relative activity (ratio to wild type); higher = more cleavage; co-transcriptional
Record 1 whenever self-cleavage is at 0.2 or higher; record 0 when lower.

G28C C44A    0
C18U C32G    0
C32A A42C    0
C13G C22A    0
G11C A71G    1
U23C G31A    1
C61U A78G    1
U72G A78C    0
U12G C75A    0
C19A G67U    1

Prompt line: In plain terms: is recorded self-cleavage at least 0.2 for C49A C63A ?
Response line: 1

Prompt line: Quick check, self-cleavage >= 0.2? U47C G59C
Response line: 1

Prompt line: Kindly determine if self-cleavage recorded for C33A C58U is above or exactly 0.2.
Response line: 0
